pKi: −log10 of the molar value.
Here's a batch of compounds along with measured pKi for Kappa-type opioid receptor (Cavia porcellus, UniProt P41144).

Worked set:
C=Cc1ccc2c3c1O[C@H]1c4[nH]c5ccccc5c4C[C@@]4(O)[C@@H](C2)N(CC2CC2)CC[C@]314; 4.75
Oc1ccc2c3c1O[C@H]1c4[nH]c5ccccc5c4C[C@@]4(O)[C@@H](C2)N(CC2CC2)CC[C@]314; 7.52
O[C@@]12Cc3c([nH]c4ccccc34)[C@@H]3Oc4c(-c5ccco5)ccc5c4[C@@]31CCN(CC1CC1)[C@@H]2C5; < 5.17

IN: Under Kappa-type opioid receptor (Cavia porcellus, UniProt P41144), report pKi for Oc1cccc(-c2ccc3c4c2O[C@H]2c5[nH]c6ccccc6c5C[C@@]5(O)[C@@H](C3)N(CC3CC3)CC[C@]425)c1
OUT: < 5.17

IN: Under Kappa-type opioid receptor (Cavia porcellus, UniProt P41144), report pKi for O[C@@]12Cc3c([nH]c4ccccc34)[C@H]3Oc4cccc5c4[C@@]31CCN(CC1CC1)[C@@H]2C5
OUT: 4.96

IN: Under Kappa-type opioid receptor (Cavia porcellus, UniProt P41144), report pKi for COc1cccc(-c2ccc3c4c2O[C@H]2c5[nH]c6ccccc6c5C[C@@]5(O)[C@@H](C3)N(CC3CC3)CC[C@]425)c1
OUT: < 5.17

IN: Under Kappa-type opioid receptor (Cavia porcellus, UniProt P41144), report pKi for Cc1ccc2c3c1O[C@H]1c4[nH]c5ccccc5c4C[C@@]4(O)[C@@H](C2)N(CC2CC2)CC[C@]314
OUT: < 5.17

IN: Under Kappa-type opioid receptor (Cavia porcellus, UniProt P41144), report pKi for O[C@@]12Cc3c([nH]c4ccccc34)[C@@H]3Oc4c(-c5ccccc5)ccc5c4[C@@]31CCN(CC1CC1)[C@@H]2C5
OUT: < 5.17

###

Target: Delta-type opioid receptor (Rattus norvegicus)
Sequence (P33533 whole entry): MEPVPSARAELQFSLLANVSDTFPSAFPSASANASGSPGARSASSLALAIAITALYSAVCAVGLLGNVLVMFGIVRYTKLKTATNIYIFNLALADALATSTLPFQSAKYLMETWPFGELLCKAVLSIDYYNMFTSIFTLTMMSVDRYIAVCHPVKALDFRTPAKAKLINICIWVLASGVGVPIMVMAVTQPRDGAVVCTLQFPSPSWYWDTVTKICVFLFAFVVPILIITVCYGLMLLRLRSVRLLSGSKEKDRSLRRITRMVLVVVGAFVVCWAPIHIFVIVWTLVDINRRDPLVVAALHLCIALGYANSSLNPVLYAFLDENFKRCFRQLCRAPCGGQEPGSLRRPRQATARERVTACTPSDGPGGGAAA
Assay: Compound was tested for its ability to displace [3H]DADLE from delta receptor in rat brain.
Listed compounds paired with reported Ki
Write it as a number; the unit nM goes unstated.

IN: Report Ki, nothing else, for this compound: C=Cc1ccc2c3c1O[C@H]1c4[nH]c5ccccc5c4C[C@@]4(O)[C@@H](C2)N(CC2CC2)CC[C@]314
OUT: 61

IN: Report Ki, nothing else, for this compound: O[C@@]12Cc3c([nH]c4ccccc34)[C@@H]3Oc4c(-c5ccco5)ccc5c4[C@@]31CCN(CC1CC1)[C@@H]2C5
OUT: 959

IN: Report Ki, nothing else, for this compound: Oc1ccc2c3c1O[C@H]1c4[nH]c5ccccc5c4C[C@@]4(O)[C@@H](C2)N(CC2CC2)CC[C@]314
OUT: 0.217

IN: Report Ki, nothing else, for this compound: O[C@@]12Cc3c([nH]c4ccccc34)[C@@H]3Oc4c(-c5ccccc5)ccc5c4[C@@]31CCN(CC1CC1)[C@@H]2C5
OUT: 10600

IN: Report Ki, nothing else, for this compound: Oc1cccc(-c2ccc3c4c2O[C@H]2c5[nH]c6ccccc6c5C[C@@]5(O)[C@@H](C3)N(CC3CC3)CC[C@]425)c1
OUT: 1610

IN: Report Ki, nothing else, for this compound: O[C@@]12Cc3c([nH]c4ccccc34)[C@H]3Oc4cccc5c4[C@@]31CCN(CC1CC1)[C@@H]2C5
OUT: 35

IN: Report Ki, nothing else, for this compound: Cc1ccc2c3c1O[C@H]1c4[nH]c5ccccc5c4C[C@@]4(O)[C@@H](C2)N(CC2CC2)CC[C@]314
OUT: 71
